tested on: SK-MEL-2; assay: NCI tumour cell line growth inhibition, 48 h
Calls of active or inactive are those of the source. Cut-off read from the data, not from the text of the source: active = GI50 up to about 1.1 µM and inactive = higher.
# maps each entry to its GI50

Worked set:
C#CCOC(=O)C=[N+]=[N-]
> 10 µM (inactive)
Cc1nn(C(=O)c2ccccc2O)c2c1C(c1ccc([N+](=O)[O-])cc1)SC(=N)N2 (stereo unspecified)
> 5.46 µM (inactive)
COc1cc(Nc2nc3cc(C(F)(F)F)ccc3n3cccc23)cc(OC)c1OC
> 100 µM (inactive)

Lab note: record GI50 of N#CCCN(c1ccc(/C=N/c2ccc(C(=O)O)cc2)cc1)S(=O)(=O)c1ccccc1 tested on SK-MEL-2.
> 100 µM (inactive)

Report GI50 on SK-MEL-2 for this entry: O=C(CSc1nc2ccccc2c2ccccc12)c1ccccc1
> 100 µM (inactive)

Consider the molecule CC1(C)OCC(COC(=O)C=[N+]=[N-])O1 (stereo unspecified) tested on SK-MEL-2; state its GI50.
> 100 µM (inactive)

These data points were gathered from ChEMBL document CHEMBL1201862.
